These entries and their values trace back to patent US6756359B2.

Test system: S. pneumoniae Stpn_297-749 Pen R
Test: Antibacterial activity in vitro, MIC by broth microdilution
Type: cell-based, Streptococcus pneumoniae
Settings: Table 5, Strain ID G: S. pneumoniae Stpn_297-749
observed_property: MIC

CC[C@H]1OC(=O)[C@H](C)C(=O)[C@H](C)[C@@H](OC2O[C@H](C)C[C@H](N(C)C)[C@H]2O)[C@@](C)(OC)C[C@@H](C)C(=O)[C@H](C)[C@H]2N(CCCC(C)(C)n3cnc4cccnc43)C(=O)O[C@]12CC (stereo partly drawn) :: ≦0.05
CC[C@H]1OC(=O)[C@H](C)C(=O)[C@H](C)[C@@H](OC2O[C@H](C)C[C@H](N(C)C)[C@H]2O)[C@@](C)(OC)C[C@@H](C)C(=O)[C@H](C)[C@H]2N(CCCCn3cnc(-c4cncnc4)c3)C(=O)O[C@]12CC (stereo partly drawn) :: ≦0.05
CC[C@H]1OC(=O)[C@@](C)(F)C(=O)[C@H](C)[C@@H](OC2O[C@H](C)C[C@H](N(C)C)[C@H]2O)[C@@](C)(OC)C[C@@H](C)C(=O)[C@H](C)[C@H]2N(CCCCc3ccc4ccccc4n3)C(=O)O[C@]12CC (stereo partly drawn) :: ≦0.05

---

Tested on: S. epidermidis Step_f50654 Pen S
Test: Antibacterial activity in vitro, MIC by broth microdilution
Type: cell-based
Conditions: Table 5, Strain ID C: S. epidermidis Step_f50654; unit assumed
observed_property: MIC (µg/mL)

CC[C@H]1OC(=O)[C@H](C)C(=O)[C@H](C)[C@@H](OC2O[C@H](C)C[C@H](N(C)C)[C@H]2O)[C@@](C)(OC)C[C@@H](C)C(=O)[C@H](C)[C@H]2N(CCCCc3ncc(-c4cccc(N)c4)s3)C(=O)O[C@]12CC (some centres unmarked) :: 0.2
CC[C@H]1OC(=O)[C@H](C)C(=O)[C@H](C)[C@@H](OC2O[C@H](C)C[C@H](N(C)C)[C@H]2O)[C@@](C)(OC)C[C@@H](C)C(=O)[C@H](C)[C@H]2N(CCCC(C)(C)n3cnc4ncccc43)C(=O)O[C@]12CC (some centres unmarked) :: 0.2

A. CC[C@H]1OC(=O)[C@H](C)C(=O)[C@H](C)[C@@H](OC2O[C@H](C)C[C@H](N(C)C)[C@H]2O)[C@@](C)(OC)C[C@@H](C)C(=O)[C@H](C)[C@H]2N(CCCCn3cnc4ncccc43)C(=O)O[C@]12CC (some centres unmarked)
B. CC[C@H]1OC(=O)[C@H](C)C(=O)[C@H](C)[C@@H](OC2O[C@H](C)C[C@H](N(C)C)[C@H]2O)[C@@](C)(OC)C[C@@H](C)C(=O)[C@H](C)[C@H]2N(CCCC(C)(C)n3cnc4cccnc43)C(=O)O[C@]12CC (some centres unmarked)
Form: Entry with minimum MIC (choose one): A / B Response format: the label of the selected entry.
B

---

Tested on: S. epidermidis Step_f50654 Pen S
Assay: Antibacterial activity in vitro, MIC by broth microdilution
Type: cell-based
Settings: Table 5, Strain ID C: S. epidermidis Step_f50654; unit assumed
observed_property: MIC (µg/mL)
Express your answer in µg/mL, writing the number without its unit.

C=C[C@]12OC(=O)N(CCCC(C)(C)n3cnc(-c4cccnc4)c3)[C@@H]1[C@@H](C)C(=O)[C@H](C)C[C@](C)(OC)[C@H](OC1O[C@H](C)C[C@H](N(C)C)[C@H]1O)[C@@H](C)C(=O)[C@@H](C)C(=O)O[C@@H]2CC (some centres unmarked) :: 0.2

Switching to the query record.
# query: MIC of entry CC[C@H]1OC(=O)[C@H](C)C(=O)[C@H](C)[C@@H](OC2O[C@H](C)C[C@H](N(C)C)[C@H]2O)[C@@](C)(OC)C[C@@H](C)C(=O)[C@H](C)[C@H]2N(CCCCn3cnc(-c4ccc(F)nc4)c3)C(=O)O[C@]12CC (some centres unmarked)
0.2

---

Tested on: S. pneumoniae Stpn_Erm S 4297
Assay: Antibacterial activity in vitro, MIC by broth microdilution
Assay type: cell-based, Streptococcus pneumoniae
Details: Table 5, Strain ID J: S. pneumoniae Stpn_Erm S 4297
observed_property: MIC

CC[C@H]1OC(=O)[C@H](C)C(=O)[C@H](C)[C@@H](OC2O[C@H](C)C[C@H](N(C)C)[C@H]2O)[C@@](C)(OC)C[C@@H](C)C(=O)[C@H](C)[C@H]2N(CCCCn3cc(-c4cccnc4)nc3C)C(=O)O[C@]12CC (some centres unmarked) :: ≦0.05
C=C[C@]12OC(=O)N(CCCC(C)(C)n3cnc(-c4cccnc4)c3)[C@@H]1[C@@H](C)C(=O)[C@H](C)C[C@](C)(OC)[C@H](OC1O[C@H](C)C[C@H](N(C)C)[C@H]1O)[C@@H](C)C(=O)[C@@H](C)C(=O)O[C@@H]2CC (some centres unmarked) :: ≦0.05

---

Test system: S. pneumoniae Stpn_49619
Test: Antibacterial activity in vitro, MIC by broth microdilution
Assay type: cell-based, Streptococcus pneumoniae
Conditions: Table 5, Strain ID F: S. pneumoniae Stpn_49619; unit assumed
Below, each entry is listed alongside its reported MIC.
Number in µg/mL, nothing else.

Check out these entries, answers already filled in.
CC[C@H]1OC(=O)[C@H](C)C(=O)[C@H](C)[C@@H](OC2O[C@H](C)C[C@H](N(C)C)[C@H]2O)[C@@](C)(OC)C[C@@H](C)C(=O)[C@H](C)[C@H]2N(CCCCn3cnc(-c4ccc(F)nc4)c3)C(=O)O[C@]12CC (stereo partly shown) [Example 33] :: 3.13
CC[C@H]1OC(=O)[C@H](C)C(=O)[C@H](C)[C@@H](OC2O[C@H](C)C[C@H](N(C)C)[C@H]2O)[C@@](C)(OC)C[C@@H](C)C(=O)[C@H](C)[C@H]2N(CCCOc3ccc(-c4cccnc4)cc3)C(=O)O[C@]12CC (stereo partly shown) [Example 36] :: 25
CC[C@H]1OC(=O)[C@H](C)C(=O)[C@H](C)[C@@H](OC2O[C@H](C)C[C@H](N(C)C)[C@H]2O)[C@@](C)(OC)C[C@@H](C)C(=O)[C@H](C)[C@H]2N(CCCCc3ncc(-c4cccc(N)c4)s3)C(=O)O[C@]12CC (stereo partly shown) [Example 34] :: 3.13

Continue with the compound presented below.
For S. pneumoniae Stpn_49619, provide MIC of CC[C@H]1OC(=O)[C@H](C)C(=O)[C@H](C)[C@@H](OC2O[C@H](C)C[C@H](N(C)C)[C@H]2O)[C@@](C)(OC)C[C@@H](C)C(=O)[C@H](C)[C@H]2N(CCCOc3cccc(-c4cccnc4)c3)C(=O)O[C@]12CC (stereo partly shown) [Example 35] please.
6.25

---

System: S. epidermidis Step_f50654 Pen S
Assay: Antibacterial activity in vitro, MIC by broth microdilution
Type: cell-based
Conditions: Table 5, Strain ID C: S. epidermidis Step_f50654; unit assumed
observed_property: MIC (µg/mL)

CC[C@H]1OC(=O)[C@H](C)C(=O)[C@H](C)[C@@H](OC2O[C@H](C)C[C@H](N(C)C)[C@H]2O)[C@@](C)(OC)C[C@@H](C)C(=O)[C@H](C)[C@H]2N(CCCOc3ccc(-c4cccnc4)cc3)C(=O)O[C@]12CC (stereo partly drawn) :: 0.78

A. CC[C@H]1OC(=O)[C@@](C)(F)C(=O)[C@H](C)[C@@H](OC2O[C@H](C)C[C@H](N(C)C)[C@H]2O)[C@@](C)(OC)C[C@@H](C)C(=O)[C@H](C)[C@H]2N(CCCCn3cnc(-c4ccc(C)nc4)c3)C(=O)O[C@]12CC (stereo partly drawn)
B. C=C[C@]12OC(=O)N(CCCCn3cnc(-c4cccnc4)c3)[C@@H]1[C@@H](C)C(=O)[C@H](C)C[C@@](C)(OC)[C@H](OC1O[C@H](C)C[C@H](N(C)C)[C@H]1O)[C@@H](C)C(=O)[C@@H](C)C(=O)O[C@@H]2CC (stereo partly drawn)
Compare A and B and name the one whose reported MIC is smaller. Field: selected label. Fill in the label of the entry you choose.
B

P. CC[C@H]1OC(=O)[C@H](C)C(=O)[C@H](C)[C@@H](OC2O[C@H](C)C[C@H](N(C)C)[C@H]2O)[C@@](C)(OC)C[C@@H](C)C(=O)[C@H](C)[C@H]2N(CCCCn3cnc(-c4cncnc4)c3)C(=O)O[C@]12CC (stereo partly drawn)
Q. CC[C@H]1OC(=O)[C@@](C)(F)C(=O)[C@H](C)[C@@H](OC2O[C@H](C)C[C@H](N(C)C)[C@H]2O)[C@@](C)(OC)C[C@@H](C)C(=O)[C@H](C)[C@H]2N(CCCCn3cnc4ncccc43)C(=O)O[C@]12CC (stereo partly drawn)
Could you please tell me which of these two has the higher MIC: P or Q ? Output the label that corresponds to your choice.
P

P. CC[C@H]1OC(=O)[C@H](C)C(=O)[C@H](C)[C@@H](OC2O[C@H](C)C[C@H](N(C)C)[C@H]2O)[C@@](C)(OC)C[C@@H](C)C(=O)[C@H](C)[C@H]2N(CCN(C)Cc3cccnc3)C(=O)O[C@]12CC (stereo partly drawn)
Q. CC[C@H]1OC(=O)[C@H](C)C(=O)[C@H](C)[C@@H](OC2O[C@H](C)C[C@H](N(C)C)[C@H]2O)[C@@](C)(OC)C[C@@H](C)C(=O)[C@H](C)[C@H]2N(CCCCn3cc(-c4cccnc4)nc3C)C(=O)O[C@]12CC (stereo partly drawn)
Lab note: check whether P or Q shows the higher recorded MIC. API: response body contains the label of the selected item.
P
(P: 0.78 µg/mL, Q: 0.2 µg/mL)

A. C/C=C\[C@]12OC(=O)N(CCCCn3cnc(-c4cccnc4)c3)[C@@H]1[C@@H](C)C(=O)[C@H](C)C[C@](C)(OC)[C@H](O[C@@H]1O[C@H](C)C[C@H](N(C)C)[C@H]1O)[C@@H](C)C(=O)[C@](C)(F)C(=O)O[C@@H]2CC
B. CC[C@H]1OC(=O)[C@H](C)C(=O)[C@H](C)[C@@H](OC2O[C@H](C)C[C@H](N(C)C)[C@H]2O)[C@@](C)(OC)C[C@@H](C)C(=O)[C@H](C)[C@H]2N(CCCOc3cccc(-c4cccnc4)c3)C(=O)O[C@]12CC (stereo partly drawn)
Of A and B , which one carries the higher reported MIC? Give the label under which the chosen entry appears.
B
(B: 0.78 µg/mL, A: 0.2 µg/mL)
